Molecular target: T1, rat NK1 receptor (rat, UniProt P14600 1-407)
T1 construct: whole, on cells; Assayed as membrane preparations of transfected CHO cells; also called rNK1; rNK-1
T1 sequence (P14600 whole entry): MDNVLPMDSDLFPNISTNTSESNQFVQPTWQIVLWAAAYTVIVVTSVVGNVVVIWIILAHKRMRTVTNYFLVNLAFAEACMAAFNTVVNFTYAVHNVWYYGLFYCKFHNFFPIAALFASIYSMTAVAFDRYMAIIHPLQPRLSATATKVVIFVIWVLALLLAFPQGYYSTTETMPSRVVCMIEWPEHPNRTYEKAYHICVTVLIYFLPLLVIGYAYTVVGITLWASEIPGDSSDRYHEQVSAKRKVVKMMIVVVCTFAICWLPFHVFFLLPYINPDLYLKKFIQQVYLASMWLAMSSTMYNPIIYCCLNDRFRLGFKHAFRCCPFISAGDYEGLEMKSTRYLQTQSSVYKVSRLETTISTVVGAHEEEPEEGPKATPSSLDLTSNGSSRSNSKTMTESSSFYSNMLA
Test: competition vs [3H]substance P, membranes of rNK1-transfected CHO cells
Square brackets hold non-standard residues; d marks the D form. * marks the point of attachment. OBzl(3,5-(CF3)2) = FC(F)(F)c1cc(CO*)cc(C(F)(F)F)c1; Met(O) = CS(=O)CC[C@H](N)C(=O)O
readout.type: LogIC50
Please reply with the value in numeric form only.

# binder, numeric.result
records = [
    ("H-Y[dA]GFLPLW-{OBzl(3,5-(CF3)2)} (also: TFA salt, TFA salt; also called TY004) [H-Tyr-D-Ala-Gly-Phe-Leu-Pro-Leu-Trp-O-3,5-Bzl(CF3)2]", -7.7),
    ("H-Y[dA]GF[Met(O)]PLW-{OBzl(3,5-(CF3)2)} (also: TFA salt, TFA salt; also called TY023) [H-Tyr-D-Ala-Gly-Phe-Met(O)-Pro-Leu-Trp-O-3,5-Bzl(CF3)2]", -7.27),
]

Next:
Fill in the blank: the reported LogIC50 of H-Y[dA]GFFPLW-{OBzl(3,5-(CF3)2)} (also: TFA salt, TFA salt; also called TY003) [H-Tyr-D-Ala-Gly-Phe-Phe-Pro-Leu-Trp-O-3,5-Bzl(CF3)2] is ____.
-7.72
